Where do the numbers come from? From paper PMC9358669.

Biological target: Elastase (Sus scrofa, UniProt P00772)
Construct: purchased Sigma-Aldrich
Sequence (P00772 27-266): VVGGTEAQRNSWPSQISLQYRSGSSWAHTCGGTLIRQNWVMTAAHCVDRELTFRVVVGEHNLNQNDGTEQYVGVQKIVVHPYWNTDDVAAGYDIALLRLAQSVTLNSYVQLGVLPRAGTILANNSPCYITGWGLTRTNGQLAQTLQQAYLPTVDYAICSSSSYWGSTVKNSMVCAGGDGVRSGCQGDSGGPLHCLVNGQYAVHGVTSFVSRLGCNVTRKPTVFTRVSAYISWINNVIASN
Assay: Elastase inhibition, fluorogenic substrate assay (MeOSuc-Ala-Ala-Pro-Val-AMC)
Type: biochemical, Sus domesticus
Conditions: Elastase; inhibitor concentration 0.0508053 nM; 40 min pre-incubation
Would you mind telling me the reported Mean (RFU/s) of each entry?
Could you give me the number in RFU/s? Just the number is fine.

Reported Mean (RFU/s) for Elastase (Sus scrofa, UniProt P00772), given CC=C1NC(=O)[C@@H](NC(=O)[C@@H](NC(=O)[C@@H]2CCCN2C(=O)CCC)[C@@H](C)OC(=O)C2CCCN2C(=O)CCC)[C@@H](C)OC(=O)[C@H](C(C)C)NC(=O)[C@H](Cc2ccc(O)cc2)N(C)C(=O)[C@H](Cc2ccccc2)N2C(=O)[C@H](CC[C@H]2O)NC1=O (stereo partly drawn) [Rivulariapeptolide 1155, rivulariapeptolide 1155] ? 0.9773

Reported Mean (RFU/s) for Elastase (Sus scrofa, UniProt P00772), given C/C=C1\NC(=O)[C@@H](NC(=O)[C@@H](NC(=O)[C@H](C)NC(=O)CCC)[C@@H](C)O)[C@@H](C)OC(=O)[C@H](C(C)C)NC(=O)[C@H](Cc2ccc(O)c(Br)c2)N(C)C(=O)[C@H](Cc2ccccc2)N2C(=O)[C@H](CC[C@H]2O)NC1=O [Molassamide B, molassamide B] ? 0.846

Reported Mean (RFU/s) for Elastase (Sus scrofa, UniProt P00772), given CC=C1NC(=O)[C@@H](NC(=O)[C@@H](NC(=O)[C@@H]2CCCN2C(=O)CCC)[C@@H](C)O)[C@@H](C)OC(=O)[C@H](C(C)C)NC(=O)[C@H](Cc2ccc(O)cc2)N(C)C(=O)[C@H](Cc2ccccc2)N2C(=O)[C@H](CC[C@H]2O)NC1=O [Rivulariapeptolide 988, rivulariapeptolide 988] ? 0.804
